Parameter composite z-score: see the listing below.
- PROCEDURE_DETAILS: compound binding in COS7 lysate, probe aLAP1, primary screen, cell lysate, small-molecule microarray (AID 1124);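 note: lysate comes from COS7 cells expressing LAP1 and is applied at 0.3 µg/mL; score merges spot fluorescence near 667 nm with signal-to-noise over triplicate slides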
- CONDITION_DESCRIPTION: probe aLAP1, fluorescence, higher = more signal

The cases that follow already have their composite z-score on record.
1) C[C@@H](c1ccccc1)N1C(=O)[C@H]2[C@H]3[C@H](O)C=CC(=O)[C@@H]3CC[C@H]2C1=O; 0.146
2) O[C@@H](Cc1ccccc1)[C@H]1C2C=CCCC(c3ccccc3)=C2CN1Cc1cccc(Cl)c1 (stereo partly drawn); 0.466
3) O=C1c2ccccc2[C@@]2(Cc3ccccc3N(C3CC3)C2=O)[C@H](c2ccc(CO)cc2)N1Cc1ccccc1C(F)(F)F; 0.439
4) O=C1C[C@@H](O)[C@@H](O)[C@@H]2[C@@H]3C(=O)N(Cc4ccc5c(c4)OCO5)C(=O)[C@@H]3CC[C@@H]12; -0.0553
5) CC(C)=NOCc1cccc(-c2cc(-c3ccccc3)no2)c1; 0.0499
6) CC(=O)O[C@H]1C2=C(C(=O)[C@@H]3O[C@@H]31)[C@H]1C(C)O[C@@H]2[C@@]23C(=O)[C@@H]4O[C@@H]4[C@@H](O)C2=CO[C@H](C)[C@@H]13 (stereo partly drawn); -0.283

[Q] Tell me the measured composite z-score of C#CCCCON=C1C[C@@H](O)[C@@H](O)[C@@H]2[C@@H]3C(=O)N(Cc4ccccc4)C(=O)[C@@H]3CC[C@H]12 , please.
[A] -0.316

[Q] Continue with COC(=O)[C@H](C)NC(=O)CCC1CC(OC(=O)NCc2cccc3ccccc23)CC2(CCCC(COC(=O)NCC3CCCCC3)O2)O1 (stereo partly drawn)
[A] 0.486

[Q] What would you report for CO[C@@H]1COC(=O)[C@H](C)NC(=O)[C@@H](C)COC(=O)CCC[C@H]1C ?
[A] -0.0546

Source listed as PubChem BioAssay.
